system: JEG-3; assay: Primary qHTS to identify gynecologic anti-cancer compounds using libraries of approved drugs and bioactive compounds (AID 1345084); conditions: Gynecologic cancer cell panel viability, ATPlite luminescence, 48 h; series mostly up to 57.5 µM; also: nearly all actives have a fitted effect of over 55% in size
Results filed as inconclusive are left out. Activity calls are given as the source filed them. Calls follow the shape of the dose curve; as a rule, active = well fitted cell-killing curve with a large enough effect; inconclusive = small, poorly fitted or top-dose-only effect, or effect the other way; inactive = flat fitted curve, though single readings scatter.
Quantity: activity change, negative = cytotoxicity

COC1=CC(=O)CC(C)C12Oc1cc(OC)cc(O)c1C2=O (stereo unspecified) | inactive
CC(=O)OC12COC1CC(O)C1(C)C(=O)C(O)C3=C(C)C(OC(=O)C(O)C(NC(=O)OC(C)(C)C)c4ccccc4)CC(O)(C(OC(=O)c4ccccc4)C21)C3(C)C (stereo unspecified) | inactive
CC1(C(=O)O)CCCC2(C)C3=CCC4CC3(CCC12)CC4CO (stereo unspecified) | inactive
O=C(c1ccc2nccnc2c1)N1CCCCC1 | inactive
CO/N=C(/C(=O)N[C@@H]1C(=O)N2C(C(=O)O)=C(Cn3ccc(=N)n3CCO)CS[C@H]12)c1csc(N)n1 | inactive

Incoming: Look up activity change, negative = cytotoxicity: C[C@H]1Oc2cc(cnc2N)-c2c(nn(C)c2C#N)CN(C)C(=O)c2ccc(F)cc21
Outgoing: inactive

Incoming: Look up activity change, negative = cytotoxicity: O=C(COc1cccc2c(=O)[nH]ccc12)c1ccccc1
Outgoing: inactive

Incoming: Look up activity change, negative = cytotoxicity: CC(=O)O[C@@H](CO[C@@H]1O[C@H](CO)[C@H](O)[C@H](O)[C@H]1O)[C@]1(C)C=C2CC[C@@H]3C(C)(C)[C@@H](O)CC[C@@]3(C)[C@@H]2CC1
Outgoing: inactive

Incoming: Look up activity change, negative = cytotoxicity: O=C1CC2(CCCC2)[C@H](O)C(=O)N1CCCCN1CCN(c2ncccn2)CC1
Outgoing: inactive

Incoming: Look up activity change, negative = cytotoxicity: CC(=O)O[C@@H]1[C@@H](O)[C@H](C)O[C@@H](O[C@H]2[C@@H]3C=CO[C@@H](O[C@@H]4O[C@H](CO)[C@@H](O)[C@H](O)[C@H]4O)[C@@H]3[C@@]3(CO)O[C@@H]23)[C@@H]1OC(=O)/C=C/c1ccccc1
Outgoing: inactive

Incoming: Look up activity change, negative = cytotoxicity: CC1CCC2(C(=O)O)CCC3(C)C(=CCC4C5(C)CCC(OC(=O)/C=C/c6ccccc6)C(C)(C)C5CCC43C)C2C1C (stereo unspecified)
Outgoing: inactive

Incoming: Look up activity change, negative = cytotoxicity: C/C(=C\CC[C@@H](C)[C@H]1CC(O)[C@@]2(C)C3CC[C@H]4C(C)(C)[C@@H](OC5OCC(O)C(O)C5OC5OC(CO)C(O)C(O)C5O)CC[C@@]45C[C@@]35CC(O)[C@]12C)C(=O)O (stereo partly specified)
Outgoing: inactive

Incoming: Look up activity change, negative = cytotoxicity: COc1ccc(F)cc1-c1cc(NC(=O)[C@@H]2CCCNC2)ncc1Cl
Outgoing: inactive

Incoming: Look up activity change, negative = cytotoxicity: C=C1C(OC(=O)/C(C)=C\C)[C@@]23CCC4[C@@](C)(CCC[C@@]4(C)C(=O)O)C2CC[C@H]1C3OC(C)=O (stereo partly specified)
Outgoing: inactive

Incoming: Look up activity change, negative = cytotoxicity: COc1cc(O)cc(C)c1C(=O)O[C@@H]1[C@H](O)[C@@H](CO)O[C@H]1n1ccc(=O)[nH]c1=O
Outgoing: inactive

Incoming: Look up activity change, negative = cytotoxicity: C[C@@H]([C@@H](O)c1ccc(O)cc1)N1CCC(O)(c2ccccc2)CC1
Outgoing: inactive
